MEASURED_ATTRIBUTE: melting point (°C)
Note: unit °C is implicit; provide only the numeric part.

Examples from the recorded data:
> print(dat)
                                   compound  measured.attribute  meas.value
1  N#Cc1ccc(Cn2cncc2CCNC(=O)[C@H]2CN(S(=O)(=O)c3ccccc3)CCN2C(=O)NC2CCCCC2)cc1 [Example 28R]       melting point       143.6
2  O=C(NCCc1cncn1Cc1ccc(Cl)cc1)[C@H]1CN(Cc2ccccc2)CCN1C(=O)NC1CCCCC1 [Example 28C]       melting point       116.2

**Query** Record request: melting point value, item CC(C)(C)NC(=O)N1CCN(Cc2ccccc2)C[C@@H]1C(=O)NCCc1cncn1Cc1ccc(C#N)cc1 [Example 28O]
**Result** 97.8

**Query** Next record, please: CC(C)(C)NC(=O)N1CCN(Cc2ccccc2)C[C@@H]1C(=O)N(CCCn1ccnc1)Cc1ccccc1 [Example 28T]
**Result** 57.8

---

Each entry below lists one item and its recorded melting point value.

Examples from the recorded data:
> print(dat)
                                   compound  measured.attribute        meas.value
1  CCS(=O)(=O)N1CCN(Cc2ccccc2)C[C@@H]1C(=O)NCCc1cncn1Cc1ccc(C#N)cc1 [Example 28K]       melting point  97.3 to 150.2 °C
2  CC(C)(C)OC(=O)N1CCN(C(=O)OCc2ccccc2)[C@@H](C(=O)NCCCn2ccnc2C(N)=O)C1 [Example 28Z]       melting point       71 to 75 °C
3  O=C(NCCc1cncn1CCc1ccccc1)[C@H]1CN(Cc2ccccc2)CCN1C(=O)NC1CCCCC1 [Example 28D]       melting point           64.4 °C
4  N#Cc1ccc(Cn2cncc2CCNC(=O)[C@H]2CN(Cc3ccccc3)CCN2C(=O)CC2CCN(C(N)=O)CC2)cc1 [Example 28Q]       melting point          118.5 °C

Let us move to another entry and its melting point.
**Query** Record request: melting point value, item O=C([C@H]1CN(Cc2ccccc2)CCN1C(=O)NC1CCCCC1)N(CCCn1ccnc1)Cc1ccccc1 [Example 28S]
**Result** 89.1 °C

---

Each entry below lists one item and its recorded melting point value.

> print(dat)
                                   compound       meas.value
1  N#Cc1ccc(Cn2cncc2CCNC(=O)[C@H]2CN(Cc3ccccc3)CCN2C(=O)Cc2ccccc2)cc1 [Example 28I]  85.6 to 96.7 °C
2  CC(C)(C)OC(=O)N1CCN(C(=O)NC2CCCCC2)[C@@H](C(=O)NCCc2cncn2Cc2ccc(F)cc2)C1     72 °C (dec.)

Let us move to another entry and its melting point.
**Query** Record request: melting point value, item N#Cc1ccc(Cn2cncc2CCNC(=O)[C@H]2CN(Cc3ccccc3)CCN2C(=O)c2ccccc2)cc1 [Example 28G]
**Result** 115.3 to 170.3 °C
